The entries below come with measured phosphorylation enrichment values attached.
- system: FGFR1 (UniProt P11362)
- Sequence (P11362 whole entry, looked up): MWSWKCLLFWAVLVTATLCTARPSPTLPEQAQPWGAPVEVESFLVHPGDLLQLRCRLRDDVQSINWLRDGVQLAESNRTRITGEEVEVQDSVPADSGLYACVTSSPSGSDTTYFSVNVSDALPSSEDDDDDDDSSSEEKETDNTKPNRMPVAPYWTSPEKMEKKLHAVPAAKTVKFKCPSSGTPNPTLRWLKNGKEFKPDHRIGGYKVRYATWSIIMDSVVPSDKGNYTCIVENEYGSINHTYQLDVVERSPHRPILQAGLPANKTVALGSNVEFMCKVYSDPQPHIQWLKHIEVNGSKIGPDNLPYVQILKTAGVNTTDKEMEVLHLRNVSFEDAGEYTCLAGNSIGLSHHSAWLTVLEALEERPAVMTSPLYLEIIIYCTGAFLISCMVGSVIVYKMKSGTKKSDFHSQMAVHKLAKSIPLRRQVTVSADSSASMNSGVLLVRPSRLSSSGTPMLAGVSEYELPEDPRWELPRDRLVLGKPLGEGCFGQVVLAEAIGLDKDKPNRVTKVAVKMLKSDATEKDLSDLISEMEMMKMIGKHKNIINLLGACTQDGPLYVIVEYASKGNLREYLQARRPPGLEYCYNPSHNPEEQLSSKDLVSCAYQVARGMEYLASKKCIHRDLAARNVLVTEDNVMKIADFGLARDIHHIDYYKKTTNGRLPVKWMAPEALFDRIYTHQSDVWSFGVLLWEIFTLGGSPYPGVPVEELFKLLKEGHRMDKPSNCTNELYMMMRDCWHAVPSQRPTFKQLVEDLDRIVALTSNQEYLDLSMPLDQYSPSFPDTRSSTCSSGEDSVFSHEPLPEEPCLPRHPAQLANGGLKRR
- test.summary: phosphorylation enrichment, bacterial display (enrichment ratio); higher = better substrate or ligand; peptides without Tyr show the background;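 further: 11-residue human phosphosite peptides and single-mutation variants displayed on the E. coli surface, counted by deep sequencing, each peptide's frequency after selection divided by its frequency in the unselected input library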;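 further: frequency after pTyr selection over input frequency; kinase dosed for 20-30% of maximal phosphorylation in three min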
Just the number.

These recorded examples may help you get a feel for the data.
macromolecule.sequence | phosphorylation enrichment
TQNAVYSAANY [DDX5_Y535_G533A] | 0.586
EVASVYESFQP [MAVS_Y92_Q93E_YF] | 0.668
FTNRNYDLDYD [MYC_Y12] | 0.69
TMKSRYMELYD [BBS2_Y644] | 0.489
HAVFVYDICHV [TWNK_Y508_YF] | 0.631
LTFDEYRNNSQ [ANXA3_Y216_I219N] | 0.573
NQELIYEGQRL [TBK1_Y354_R357Q] | 0.628
RLDGEYFTLQI [TP53_Y327_P322R] | 5.82
ALVFLSFCIIF [SIGLEC12_Y494_Y494S] | 0.45
DQIDTYELSGG [DNM1_Y354] | 0.54

Problem: For the sequence shown here, TGNGYYFRVFS [MYBPC3_Y1136_I1131T] , give the reported phosphorylation enrichment.
Result: 0.542

Problem: Please answer likewise for RFLRGYHQDAY [HLA-A_Y137_R138H]
Result: 0.572

Problem: Please answer likewise for EFKKHYGYSLY [ANXA3_Y295]
Result: 0.471
